# measured target: MASP-2 CCP2-SP (Homo sapiens (Human), UniProt O00187)
# Sequence (O00187 445-686): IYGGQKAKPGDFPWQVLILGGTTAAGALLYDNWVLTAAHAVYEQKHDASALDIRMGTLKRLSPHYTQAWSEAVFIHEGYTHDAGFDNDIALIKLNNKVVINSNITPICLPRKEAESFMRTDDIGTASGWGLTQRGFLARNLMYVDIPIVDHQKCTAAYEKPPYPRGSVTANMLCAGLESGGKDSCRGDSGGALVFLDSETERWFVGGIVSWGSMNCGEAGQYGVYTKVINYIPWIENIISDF
# Sequence (O00187 364-432 partner): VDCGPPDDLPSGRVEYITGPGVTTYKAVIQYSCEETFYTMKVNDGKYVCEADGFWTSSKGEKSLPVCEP
# procedure summary: MASP-2 co-crystallization, X-ray crystallography and structure analysis (H-bonds, van der Waals contacts)
# test conditions: Table A1 (H-Bonds); SER 654 O
Each entry below lists one item and its recorded H-bond distance to MASP-2 SER 654 atom O value.

cpd smiles: Cc1nc(N)ccc1CNC(=O)[C@H](C)NC(=O)[C@H]1C[C@@H](c2ccccc2)CCN1C
H-bond distance to MASP-2 SER 654 atom O: 3.07
--
cpd smiles: Cc1cc(Cl)cc(CNC(=O)[C@H](C)NC(=O)[C@H]2C[C@H](Cc3ccccc3)CN2)c1O
H-bond distance to MASP-2 SER 654 atom O: 2.91
--
cpd smiles: C[C@H](NC(=O)[C@H]1C[C@@H](c2ccccc2)CCN1)C(=O)NCc1cnc2[nH]cc(Cl)c2c1
H-bond distance to MASP-2 SER 654 atom O: 2.89
--
cpd smiles: Cc1nc(N)ccc1CNC(=O)[C@H](C)NC(=O)[C@H]1C[C@@H](c2cccc3ccccc23)CCN1
H-bond distance to MASP-2 SER 654 atom O: 2.88

###

Reported Pharmacophore torsion angle a(O1, O2, N2, CA2) values follow for various compounds
# measured target: MASP-2 CCP2-SP (Homo sapiens (Human), UniProt O00187)
# procedure summary: MASP-2 co-crystallization, X-ray crystallography and structure analysis (H-bonds, van der Waals contacts)
# test conditions: Table A7-2; between pharmacophore elements of the bound compound
# Source text: This example illustrates the preparation of recombinant MASP-2 protein, based on UniProt O00187, human mannan-binding lectin serine protease 2. Expression constructs for human MASP-2 CCP2-SP and CCP2-SP-6HIS were generated for recombinant expression in E. coli cells. […]
measured quantity: Pharmacophore torsion angle a(O1, O2, N2, CA2)

compound: CC(NC(=O)C(CCc1ccccc1)NCCCc1ccc(O)cc1)C(=O)NCc1ccc(C(=N)N)cc1.Cl.Cl (stereo not drawn)
measured: 140.87

compound: Cc1nc(N)ccc1CNC(=O)[C@H](C)NC(=O)[C@H]1C[C@@H](c2cccc3ccccc23)CCN1.Cl.Cl [1297_4]
measured: 126.11

compound: C[C@H](NC(=O)[C@H]1C[C@@H](c2ccccc2)CCN1)C(=O)NCc1cc(Cl)ccc1O.Cl [1078_11]
measured: 138.54

compound: C[C@H](NC(=O)[C@H]1C[C@@H](c2ccccc2)CCN1)C(=O)NCc1cc(Cl)ccc1O.Cl [1078_10]
measured: 136.18

compound: C[C@H](NC(=O)[C@H]1C[C@@H](c2ccccc2)CCN1)C(=O)NCc1cc(Cl)ccc1O.Cl [1078_4]
measured: 136.93

compound: C[C@H](NC(=O)[C@H]1C[C@@H](c2ccccc2)CCN1)C(=O)NCc1cc(Cl)ccc1O.Cl [1078_13]
measured: 137.37

compound: CC(NC(=O)C1CC(Cc2ccccc2)CN1)C(=O)NCc1cnc2c(c1)c(Cl)cn2C.Cl.Cl (mixture of isomers) [1450_A]
measured: 120.74

compound: Cc1nc(N)ccc1CNC(=O)[C@H](C)NC(=O)[C@H]1C[C@H](Cc2cccc(-c3ccccc3)c2)CN1
measured: 127.54

compound: Cc1nc(N)ccc1CNC(=O)C(C)NC(=O)[C@H]1C[C@H](c2cccc(-c3ccccc3)c2)CN1 (stereo in doubt)
measured: 130.24

compound: Cc1nc(N)ccc1CNC(=O)[C@H](C)NC(=O)[C@H]1C[C@H](Cc2ccc(-c3ccccc3)cc2)CN1
measured: 121.52

compound: Cc1nc(N)ccc1CNC(=O)[C@H](C)NC(=O)[C@H]1C[C@@H](c2cccc3ccccc23)CCN1.Cl.Cl [1297_2]
measured: 126.84

compound: Cc1nc(N)ccc1CNC(=O)C(C)NC(=O)C1CC(c2cccc3ccccc23)CCN1.Cl.Cl (stereo not drawn) [1297_3]
measured: 129.56

compound: C[C@H](NC(=O)[C@H]1C[C@@H](c2ccccc2)CCN1)C(=O)NCc1ccc(C(=N)N)cc1 (stereo in doubt)
measured: 129.88

compound: C[C@H](NC(=O)[C@H](N)CCCc1ccccc1)C(=O)NCc1ccc(C(=N)N)cc1.Cl.Cl [1042_2]
measured: 159.77

###

# measured target: MASP-2 CCP2-SP (Homo sapiens (Human))
# procedure summary: MASP-2 co-crystallization, X-ray crystallography and structure analysis (H-bonds, van der Waals contacts)
# test conditions: Table A8-6; 6th residue column; nearest protein atom in cell to the left
In this section, each of the compounds is paired with its reported Pharmacophore protein distance to MET_658 (first MET_658 column).
measured quantity: Pharmacophore protein distance to MET_658 (first MET_658 column)

compound: CNC(=O)c1ccc2c(=O)n(Cc3ccccc3)c(=O)n(CC(=O)NCc3ccc(C(=N)N)cc3)c2c1 [compound 2018]
measured: 1.58
//
compound: CC(NC(=O)C(CCc1ccccc1)NCc1ccc(C(=O)N2CCOCC2)cc1)C(=O)NCc1ccc(C(=N)N)cc1.Cl.Cl (stereo not drawn) [1153_A]
measured: 2.53
//
compound: C[C@H](NC(=O)C1C[C@@H](c2ccccc2)CCN1)C(=O)NCc1ccc(C(=N)N)cc1 (stereo in doubt) [compound 1063]
measured: 1.74
//
compound: C[C@H](NC(=O)[C@@H](CCc1ccccc1)NCc1ccc(C(=O)N2CCOCC2)cc1)C(=O)NCc1ccc(C(=N)N)cc1.Cl.Cl [1153_B]
measured: 2.53
//
compound: C[C@H](NC(=O)[C@H](N)CCc1cccc(Cl)c1)C(=O)NCc1ccc(C(=N)N)cc1 [compound 1081]
measured: 3.11
//
compound: C[C@H](NC(=O)[C@H]1C[C@@H](c2ccccc2)CN1)C(=O)NCc1ccc2c(N)nccc2c1.Cl.Cl [1089_A]
measured: 2.61
//
compound: C[C@H](NC(=O)[C@H]1C[C@@H](c2ccccc2)CCN1)C(=O)NCc1cc(Cl)ccc1O.Cl [1078_1]
measured: 2.97
//
compound: C[C@H](NC(=O)[C@H]1C[C@@H](c2ccccc2)CCN1)C(=O)NCc1cc(Cl)ccc1O.Cl [1078_10]
measured: 3.04
//
compound: C[C@H](NC(=O)[C@H]1C[C@H](c2ccccc2)CN1)C(=O)NCc1ccc2c(N)nccc2c1 [compound 1090]
measured: 2.69

###

// reported Ligand-pharmacophore element distance, pharmacophore element O2 per item
# measured target: MASP-2 CCP2-SP (Homo sapiens (Human))
# procedure summary: MASP-2 co-crystallization, X-ray crystallography and structure analysis (H-bonds, van der Waals contacts)
# test conditions: Table A4-2; element O2
measured quantity: Ligand-pharmacophore element distance, pharmacophore element O2

compound: N=C(N)c1ccc(CNC(=O)[C@@H]2CCN2C(=O)[C@H]2Cc3ccccc3CN2)cc1 [compound 1034]
measured: 0.49
//
compound: C[C@H](NC(=O)[C@H](N)CCc1ccccc1)C(=O)NCc1ccc(C(=N)N)cc1 [compound 1024]
measured: 0.4
//
compound: C[C@H](NC(=O)[C@H](N)CCCc1ccccc1)C(=O)NCc1ccc(C(=N)N)cc1.Cl.Cl [1042_1]
measured: 0.67
//
compound: O=c1oc(-c2ccccc2[N+](=O)[O-])nc2ccccc12 [compound 14]
measured: 0.46
//
compound: C[C@H](NC(=O)[C@H](N)CCCc1ccccc1)C(=O)NCc1ccc(C(=N)N)cc1.Cl.Cl [1042_2]
measured: 0.75
//
compound: N=C(N)c1ccc(CNC(=O)[C@@H]2CCN2C(=O)[C@H](NCC(=O)O)C2Cc3ccccc3C2)cc1 [compound 1129]
measured: 0.58

###

# measured target: MASP-2 CCP2-SP (Homo sapiens (Human))
# procedure summary: MASP-2 co-crystallization, X-ray crystallography and structure analysis (H-bonds, van der Waals contacts)
# test conditions: Table A4-1; element CA6
measured quantity: Ligand-pharmacophore element distance, pharmacophore element CA6

compound: C[C@H](NC(=O)[C@H]1C[C@@H](c2ccccc2)CCN1)C(=O)NCc1cc(Cl)ccc1O.Cl [1078_11]
measured: 0
//
compound: C[C@H](NC(=O)[C@H]1C[C@@H](c2ccccc2)CCN1)C(=O)NCc1cc(Cl)ccc1O.Cl [1078_15]
measured: 0
//
compound: C[C@H](NC(=O)[C@H](N)CCCc1ccccc1)C(=O)NCc1ccc(C(=N)N)cc1.Cl.Cl [1042_2]
measured: 0
//
compound: C[C@H](NC(=O)[C@H]1C[C@@H](c2ccccc2)CCN1)C(=O)NCc1cc(Cl)ccc1O.Cl [1078_2]
measured: 0

###

# measured target: MASP-2 CCP2-SP (Homo sapiens (Human), UniProt O00187)
# procedure summary: MASP-2 co-crystallization, X-ray crystallography and structure analysis (H-bonds, van der Waals contacts)
# Design: unit not given beside the values
# test conditions: Table A5-1 pharmacophore: distance between elements, S2/S1 region

molecule: C[C@H](NC(=O)[C@H]1C[C@@H](c2ccccc2)CCN1)C(=O)NCc1cc(Cl)ccc1O.Cl [1078_5]
d(O4,H2): 0.98

molecule: C[C@H](NC(=O)[C@H]1C[C@@H](c2ccccc2)CCN1)C(=O)NCc1cc(Cl)ccc1O.Cl [1078_16]
d(O4,H2): 0.97

molecule: C[C@H](NC(=O)[C@H]1C[C@@H](c2ccccc2)CCN1)C(=O)NCc1cc(Cl)ccc1O.Cl [1078_15]
d(O4,H2): 0.97

molecule: C[C@H](NC(=O)[C@H]1C[C@@H](c2ccccc2)CCN1)C(=O)NCc1cc(Cl)ccc1O.Cl [1078_11]
d(O4,H2): 0.97

molecule: C[C@H](NC(=O)[C@H]1C[C@@H](c2ccccc2)CCN1)C(=O)NCc1cc(Cl)ccc1O.Cl [1078_3]
d(O4,H2): 0.98
